Molecular target: human phenylalanine hydroxylase (hPAH) (Homo sapiens, UniProt P00439)
Construct: Recombinant full-length wild-type (WT) hPAH was expressed in E. coli Top10 cells in fusion with a hexa-histidyl peptide; made in house; host or cells: E. coli Top10
Assay: hPAH enzymatic activity assay (NA, 3HQ-A and Phe/3HQ-A conditions)
Format: biochemical
Conditions: 100 μM compound, 100 μM L-Phe
MEASURE: fold activation by L-Phe (Phe/3HQ-A vs. 3HQ-A) (fold)

MOLECULE	VALUE_MEASURED
COC(=O)CC[C@H](NC(=O)c1c(O)c(=O)[nH]c2ccc(OC(F)(F)F)cc12)C(=O)OC [Compound 9]	1.4
COC(=O)CNC(=O)c1c(O)c(=O)[nH]c2ccc(OC(F)(F)F)cc12 [Compound 11]	1.5
O=C(NCCc1ccccc1)c1c(O)c(=O)[nH]c2ccc(OC(F)(F)F)cc12 [Compound 8]	1.7
CCOC(=O)[C@H](Cc1ccccc1)NC(=O)c1c(O)c(=O)[nH]c2ccc(OC(F)(F)F)cc12 [Compound 3]	1.3
COC(=O)[C@H](CC(C)C)NC(=O)c1c(O)c(=O)[nH]c2ccc(OC(F)(F)F)cc12 [Compound 10]	1.4

###

Assay: Alamar Blue cell viability assay
Assay type: cell-based
Settings: human, HEK-293T cells, 50 μM
compounds and their reported viability at 24 h, 50 µM
# number only, unit % dropped from output

STRUCTURE_SMILES	UNIT_LABEL	viability at 24 h, 50 µM
COC(=O)CNC(=O)c1c(O)c(=O)[nH]c2ccc(OC(F)(F)F)cc12	%	94

Now let's try a different one.
input: Please look at this compound and report its viability at 24 h, 50 µM: `COC(=O)CC[C@H](NC(=O)c1c(O)c(=O)[nH]c2ccc(OC(F)(F)F)cc12)C(=O)OC`
output: 85

###

Biological target: human phenylalanine hydroxylase (hPAH) (Homo sapiens, UniProt P00439)
Construct: Recombinant full-length wild-type (WT) hPAH was expressed in E. coli Top10 cells in fusion with a hexa-histidyl peptide; made in house; host or cells: E. coli Top10
Sequence (P00439 1-452): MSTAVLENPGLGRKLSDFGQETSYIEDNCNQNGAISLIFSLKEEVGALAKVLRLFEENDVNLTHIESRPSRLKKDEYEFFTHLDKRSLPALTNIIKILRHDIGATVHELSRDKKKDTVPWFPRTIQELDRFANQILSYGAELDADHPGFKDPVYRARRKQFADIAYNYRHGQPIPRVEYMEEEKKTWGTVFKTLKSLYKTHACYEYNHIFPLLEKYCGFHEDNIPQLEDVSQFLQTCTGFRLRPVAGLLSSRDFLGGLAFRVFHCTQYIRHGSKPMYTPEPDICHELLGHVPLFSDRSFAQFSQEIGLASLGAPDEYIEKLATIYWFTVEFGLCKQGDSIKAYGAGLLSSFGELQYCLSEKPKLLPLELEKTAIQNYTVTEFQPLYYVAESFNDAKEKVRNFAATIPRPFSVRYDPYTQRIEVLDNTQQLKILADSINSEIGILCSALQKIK
Experiment: Limited proteolysis of hPAH by trypsin
Conditions: 100 μM in 1% DMSO, 25 °C, trypsin:hPAH 1:200; control 0.41 ± 0.03
MEASURE: proteolytic rate (kP) (min⁻¹)

Some solved cases for reference:
COMPOUND	proteolytic rate (kP) / min⁻¹
O=C(NCCc1ccccc1)c1c(O)c(=O)[nH]c2ccc(OC(F)(F)F)cc12 [Compound 8]	0.30
COC(=O)CC[C@H](NC(=O)c1c(O)c(=O)[nH]c2ccc(OC(F)(F)F)cc12)C(=O)OC [Compound 9]	0.38
COC(=O)CNC(=O)c1c(O)c(=O)[nH]c2ccc(OC(F)(F)F)cc12 [Compound 11]	0.41

(1) N[C@@H](Cc1ccccc1)C(=O)O [L-Phe, L-phenylalanine, reference compound]
(2) CCOC(=O)[C@H](Cc1ccccc1)NC(=O)c1c(O)c(=O)[nH]c2ccc(OC(F)(F)F)cc12 [Compound 3]
input: Please indicate which item has the smaller measured proteolytic rate (kP): 1 versus 2 Refer to your chosen item by its label in the answer.
output: 1
(1: 0.15 min⁻¹, 2: 0.29 min⁻¹)
